Origin of the recorded values: paper PMC6792352

Assay: in vitro
Conditions: rat, gh3-tre-luc cells, AC50 (uM) modified / 1000, Tox21_110001=Tox21_111026; viability, 1 nM T3 present, 24 h
endpoint_label: CC50 at 24 h

The value of CC50 at 24 h measured for the compound `O=C1CCO1` turned out to be > 50 µM

----------
Experiment: in vitro
Details: rat, gh3-tre-luc cells, AC50 (uM) modified / 1000
Please provide measured CC50 at 24 h for the entries that follow.
Numbers only, in µM.

substance_smiles | CC50 at 24 h [µM]
Cc1cc(C(C)(C)c2cc(C)c(O)c(C)c2)cc(C)c1O | 16.9

Now consider the entry below.
The value of CC50 at 24 h measured for the compound `O=C1NCN(c2ccccc2)C12CCN(CCCOc1ccc(F)cc1)CC2` turned out to be 14.1

----------
Test: in vitro
Details: rat, gh3-tre-luc cells, AC50 (uM) modified / 1000
endpoint_label: CC50 at 24 h

Solved cases below.
substance_smiles | CC50 at 24 h
Cc1cccc([N+](=O)[O-])c1C(=O)O | > 90 µM
Cc1cccc(Nc2ccccc2C(=O)O)c1C | > 50 µM
O=Cc1cccc([N+](=O)[O-])c1 | > 90 µM

Dear reader, for each entry below, please note its CC50 at 24 h.
1. CCOC(=O)Cn1cccc1-c1nc(-c2ccc(OC)cc2)c(-c2ccc(OC)cc2)s1
2. Clc1ccc2[nH]nnc2c1

> 50 µM
> 90 µM

----------
Experiment: in vitro
Conditions: rat, gh3-tre-luc cells, AC50 (uM) modified / 1000, Tox21_110001=Tox21_112153; viability, 1 nM T3 present, 24 h
endpoint_label: CC50 at 24 h

The value of CC50 at 24 h measured for the compound CCC(C)(S(=O)(=O)CC)S(=O)(=O)CC [Sulfonethylmethane] turned out to be > 50 µM

----------
Test: in vitro
Settings: rat, gh3-tre-luc cells, AC50 (uM) modified / 1000, Tox21_110001=Tox21_111751; viability, 1 nM T3 present, 24 h
endpoint_label: CC50 at 24 h

The value of CC50 at 24 h measured for the compound `COC1=CC=C2[C@H]3Cc4ccc(OC)c5c4[C@@]2(CCN3C)[C@H]1O5` turned out to be > 20 µM

----------
Please provide measured AC50 for the entries that follow.
Tested on: Tox21 cell viability assays (different cell types)
Assay: Global cytotoxicity: eighteen Tox21 cell viability assays
Type: cell-based
Structures can show the parent of a compound that is named as a salt.
Answers are plain numbers, in µM.

molecule | target_under_test | AC50 [µM]
COC(=O)C1=C(C)NC(C)=C(C(=O)OCCN2CCN(C(c3ccccc3)c3ccccc3)CC2)C1c1cccc([N+](=O)[O-])c1 (stereo not shown) [Manidipine dihydrochloride] | Tox21 cell viability assays (different cell types) | 18.6

Now consider the entry below.
The value of AC50 measured for the molecule N=C1C=CC(=C(c2ccc(N)cc2)c2ccc(N)cc2)C=C1 [C.I. Basic Red 9 monohydrochloride] turned out to be 24.2

----------
Assay: in vitro
Conditions: rat, gh3-tre-luc cells, AC50 (uM) modified / 1000
Please provide measured CC50 at 24 h for the entries that follow.

Solved cases below.
compound | CC50 at 24 h
CCN(CC)c1cccc(O)c1 | > 90 µM
CC/C=C\CCOC(C)OCC (stereo not drawn) [Acetaldehyde ethyl cis-3-hexenyl acetal] | > 70 µM
CC(C)CCCCCOC(=O)CS [Isooctyl 2-mercaptoacetate] | > 90 µM
CCc1ccc(O)c(C(C)(C)C)c1 | 62.1 µM
CC(C)C[C@H]1C(=O)N2CCC[C@H]2[C@]2(O)O[C@](NC(=O)[C@@H]3C=C4c5cccc6[nH]c(Br)c(c56)C[C@H]4N(C)C3)(C(C)C)C(=O)N12 | > 50 µM
NS(=O)(=O)c1cc2c(cc1Cl)NCNS2(=O)=O [Hydrochlorothiazide] | > 90 µM
CC1CCCNC1 (stereo not drawn) | > 90 µM
Cc1cccc([N+](=O)[O-])c1C | > 90 µM

Now consider the entry below.
The value of CC50 at 24 h measured for the compound `Nc1ccc(O)cc1` turned out to be 16.6 µM

----------
Test: in vitro
Conditions: rat, gh3-tre-luc cells, AC50 (uM) modified / 1000
Structures can show the parent of a compound that is named as a salt.
endpoint_label: CC50 at 24 h

compound | CC50 at 24 h
CCOC(=O)[C@H](CCc1ccccc1)N[C@@H](C)C(=O)N1[C@H](C(=O)O)C[C@H]2CCCC[C@@H]21 | > 50 µM
CN(C)CCC[C@@]1(c2ccc(F)cc2)OCc2cc(C#N)ccc21 [Escitalopram oxalate] | > 50 µM
CC(C)NCC(O)c1ccc(NS(C)(=O)=O)cc1 (centres unmarked) [Sotalol hydrochloride] | > 90 µM

Dear reader, for each entry below, please note its CC50 at 24 h.
1. CC(C)(Sc1cc(C(C)(C)C)c(O)c(C(C)(C)C)c1)Sc1cc(C(C)(C)C)c(O)c(C(C)(C)C)c1
2. CCCCCCCCCCOS(=O)(=O)O [Sodium decyl sulfate]
3. Fc1ccc(C(OCCN2CCN(CCCc3ccccc3)CC2)c2ccc(F)cc2)cc1 [GBR 12909 dihydrochloride]
4. C[C@@H]1CN(c2c(F)c(N)c3c(=O)c(C(=O)O)cn(C4CC4)c3c2F)C[C@H](C)N1

["> 20 µM", "> 90 µM", "8.65 µM", "> 50 µM"]

The value of CC50 at 24 h measured for the compound `NC(=O)N(O)[C@@H]1COc2cc(OCc3ccccc3)ccc21` turned out to be > 90 µM

----------
Assay: in vitro
Details: rat, gh3-tre-luc cells, AC50 (uM) modified / 1000, Tox21_110001=Tox21_300997; viability, 1 nM T3 present, 24 h
endpoint_label: CC50 at 24 h

The value of CC50 at 24 h measured for the compound C/C(=N\NC(=O)Nc1cc(F)cc(F)c1)c1ncccc1C(=O)O [Diflufenzopyr-sodium] turned out to be > 90 µM

----------
Test: in vitro
Conditions: rat, gh3-tre-luc cells, AC50 (uM) modified / 1000
Please provide measured CC50 at 24 h for the entries that follow.

Dear reader, for each entry below, please note its CC50 at 24 h.
1. COc1cc(NS(=O)(=O)c2ccc(N)cc2)nc(OC)n1
2. CCCCCCC1CCOC1=O (stereo not drawn)
3. O=C1c2ccccc2S(=O)(=O)N1CCCCN1CCN(c2ncccn2)CC1
4. C=CCn1c(=O)n([C@@H]2O[C@H](CO)[C@@H](O)[C@H]2O)c2nc(N)[nH]c(=O)c21
5. NCc1cccc(CN)c1
6. OCCOCCN1CCN(C(c2ccccc2)c2ccc(Cl)cc2)CC1 (stereo not drawn) [Hydroxyzine]
7. CN1CCN(C2=Nc3cc(F)ccc3Cc3ccccc32)CC1

["> 20 µM", "> 90 µM", "> 50 µM", "> 50 µM", "> 90 µM", "18.1 µM", "11.9 µM"]

Dear reader, for each entry below, please note its CC50 at 24 h.
1. N#CC(Br)(Br)C(N)=O [2,2-Dibromo-3-nitrilopropionamide]
2. O=[N+]([O-])c1cc(C(F)(F)F)c(Cl)c([N+](=O)[O-])c1Cl

> 90 µM
2.31 µM

----------
Test: in vitro
Conditions: rat, gh3-tre-luc cells, AC50 (uM) modified / 1000, Tox21_110001=Tox21_200573; viability, 1 nM T3 present, 24 h
endpoint_label: CC50 at 24 h

The value of CC50 at 24 h measured for the compound `CC(C)(C#N)C(C)(C)C#N` turned out to be > 90 µM

----------
Assay: in vitro
Settings: rat, gh3-tre-luc cells, AC50 (uM) modified / 1000, Tox21_110001=Tox21_201173; viability, 1 nM T3 present, 24 h
endpoint_label: CC50 at 24 h

The value of CC50 at 24 h measured for the compound CCCCOC(=O)c1ccccc1N [Butyl anthranilate] turned out to be > 90 µM

----------
Tested on: GH3-TRE-Luc cell line
Conditions: read-out: AC50 (uM) modified / 1000; Tox21_110001=Tox21_301077; viability, 1 nM T3 present, 24 h
endpoint_label: CC50 (µM)
Numbers only, in µM.

The value of CC50 measured for the molecule O=C1c2ccccc2C(=O)N1SC(Cl)(Cl)Cl [Folpet] turned out to be 2.3

----------
Assay: in vitro
Conditions: rat, gh3-tre-luc cells, AC50 (uM) modified / 1000, Tox21_110001=Tox21_201682; viability, 1 nM T3 present, 24 h
endpoint_label: CC50 at 24 h

The value of CC50 at 24 h measured for the compound `NC(=S)Nc1ccccc1` turned out to be > 90 µM

----------
Assay: in vitro
Details: rat, gh3-tre-luc cells, AC50 (uM) modified / 1000, Tox21_110001=Tox21_112752; viability, 1 nM T3 present, 24 h
endpoint_label: CC50 at 24 h

The value of CC50 at 24 h measured for the molecule `CCC1(CC)C(=O)NC(=O)N(C)C1=O` turned out to be > 50 µM
